Tested on: DU-4475
assay text: normalised viability (% of control), CellTiter-Blue; higher = more viable cells (about 100 = DMSO control)
cond: 10 nM; incubation time: 72 h
metric: normalised viability (%)
Report the value in % with no unit label.

// worked examples, normalised viability included
{"columns": ["record smiles", "measured target", "normalised viability (%)"],
 "data": [
  ["CC[C@@H]1C(=O)N(C)c2cnc(Nc3ccc(C(=O)N[C@H]4CC[C@H](N5CCN(CC6CC6)CC5)CC4)cc3OC)nc2N1C(C)C", "DU-4475", 86.1],
  ["NC1(c2ccc(-c3nc4ccn5c(=O)[nH]nc5c4cc3-c3ccccc3)cc2)CCC1", "DU-4475", 107],
  ["O=C(O)CC[C@H]1CC[C@@](c2cc(F)ccc2F)(S(=O)(=O)c2ccc(Cl)cc2)CC1", "DU-4475", 101]
]}

According to the records, this compound COc1cc2c(Oc3ccc(NC(=O)C4(C(=O)Nc5ccc(F)cc5)CC4)cc3F)ccnc2cc1OCCCN1CCOCC1 displays normalised viability of 105
